B1: TRIM55 (parent)
chain: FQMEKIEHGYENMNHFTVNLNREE

Variants of: B1
testProtocol: protein stability index of a GFP-peptide fusion (GPS, HEK-293T) (PSI 1-6); higher = more stable;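 note: lentivirally expressed fusions sorted by FACS into six bins by GFP to DsRed ratio, PSI derived from sequencing read proportions per bin multiplied by bin number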
conditionsUsed: c terminus: a fixed tail appended
propertyMeasured: protein stability index
The response must contain the number and no unit.

# protein stability index of F16C = 4.06

Consider G9D . Its measured protein stability index is 3.9

The variant listed as L20V has a reported protein stability index of 1.91

According to the records, this variant Q2Y displays protein stability index of 2.52

Quick note, protein stability index for E7G landed at 2.1

Notebook: Q2R , protein stability index read as 3.07

For record E4H the listed protein stability index is 2.66

// protein stability index lookup, variant = E24T , result: 2.12

// recorded protein stability index for G9E : 3.38

Just so you know, measured protein stability index for N21K came out at 2.87

Kindly note the recorded protein stability index for N14Q , which is 3.11

Record T17P . Reported protein stability index: 3.7
